Numbers sourced from ChEMBL document CHEMBL1150878.

Test system: A549
Assay procedure: Cytotoxicity against human A549 cells by MTT assay
Format: functional
Condition context: read-out: ED50 (the source's name)
// EC50 lookup, one value per entry
API: value field is a number in µg/mL; no unit string.

// assay A549, entry CC(=O)O[C@H]1C[C@H](O)[C@H](C)[C@H]2[C@@]1(C)[C@]1(OC(C)=O)CC/C(C)=C\[C@@H]3OC(=O)[C@@]4(C)O[C@]34[C@]21O [EXCAVATOLIDE E] , EC50 value = 1.2

====

molecules and their reported EC50
Tested on: KB
Assay procedure: Cytotoxicity against human KB cells by MTT assay
Format: functional
Condition context: read-out: ED50 (the source's name)

{"Molecule": "CC(=O)O[C@H]1C[C@H](OC(C)=O)[C@@]2(C)[C@H]([C@H]1C)[C@]1(O)[C@@]2(OC(C)=O)CC/C(C)=C\\[C@@H]2OC(=O)[C@@]3(C)O[C@@]213", "Test target": "KB", "EC50": "> 50 µg/mL"}

// recorded EC50 for CCCC(=O)O[C@H]1C/C(C)=C\[C@@H]2OC(=O)[C@@]3(C)O[C@]23[C@]2(OC(C)=O)[C@H]3[C@@H](C)[C@@H](O)C[C@H](OC(C)=O)[C@]3(C)[C@]12OC(C)=O [EXCAVATOLIDE B] : > 50 µg/mL

C=C1[C@H]2O[C@H]2[C@@]2(O)[C@@]3(C)[C@H]4O[C@H]4[C@H](OC(C)=O)[C@H](C)[C@@H]3[C@@]2(OC(C)=O)[C@]2(O)[C@@H](C)C(=O)O[C@H]2[C@H]1Cl [BRIANOLIDE] has a reported EC50 of > 50 µg/mL

====

Reported values of EC50 for individual entries
System: A549
Assay procedure: Cytotoxicity against human A549 cells by MTT assay
Type: functional
Condition context: read-out: ED50 (the source's name)
Report as a plain number; the unit µg/mL is understood.

{"Compound": "C=C1[C@@H]2C[C@@]3(OC(C)=O)[C@@]4(C)[C@@H](OC(C)=O)CC=C(C)[C@@H]4[C@@]3(O)[C@]3(O2)[C@@H](C)C(=O)O[C@H]3[C@H]1Cl [EXCAVATOLIDE A]", "EC50 (µg/mL)": 21.9}

EC50 reading for CC(=O)O[C@H]1C[C@H](OC(C)=O)[C@@]2(C)[C@H]([C@H]1C)[C@]1(O)[C@@]2(OC(C)=O)CC/C(C)=C\[C@@H]2OC(=O)[C@@]3(C)O[C@@]213 : 37.2

Per the records, this compound ( CC(=O)O[C@H]1C[C@H](O)[C@H](C)[C@H]2[C@@]1(C)[C@]1(OC(C)=O)[C@@H](OC(C)=O)C/C(C)=C\[C@@H]3OC(=O)[C@@]4(C)O[C@]34[C@]21OC(C)=O [EXCAVATOLIDE C] ) has EC50 equal to 1.9

====

System: A549
Assay procedure: Cytotoxicity against human A549 cells by MTT assay
Format: functional
Condition context: read-out: ED50 (the source's name)
Recorded metric: EC50

{"Molecule": "CCCC(=O)O[C@H]1C/C(C)=C\\[C@@H]2OC(=O)[C@@]3(C)O[C@]23[C@]2(OC(C)=O)[C@H]3[C@@H](C)[C@@H](O)C[C@H](OC(C)=O)[C@]3(C)[C@]12OC(C)=O [EXCAVATOLIDE B]", "Value": "> 50 mg/L"}
{"Molecule": "C=C1[C@H]2O[C@H]2[C@@]2(O)[C@@]3(C)[C@H]4O[C@H]4[C@H](OC(C)=O)[C@H](C)[C@@H]3[C@@]2(OC(C)=O)[C@]2(O)[C@@H](C)C(=O)O[C@H]2[C@H]1Cl [BRIANOLIDE]", "Value": "> 50 mg/L"}

# evaluate next
Briefly, EC50 measured for CC(=O)O[C@H]1C[C@H](O)[C@H](C)[C@H]2[C@@]1(C)[C@]1(O)[C@@H](OC(C)=O)C/C(C)=C\[C@@H]3OC(=O)[C@@]4(C)O[C@]34[C@]21OC(C)=O [EXCAVATOLIDE D] : > 50 mg/L
